# assayedTarget: Recombinant bovine HSC70 (Stressgen) (bovine) (UniProt P19120)
# Sequence (P19120 whole entry): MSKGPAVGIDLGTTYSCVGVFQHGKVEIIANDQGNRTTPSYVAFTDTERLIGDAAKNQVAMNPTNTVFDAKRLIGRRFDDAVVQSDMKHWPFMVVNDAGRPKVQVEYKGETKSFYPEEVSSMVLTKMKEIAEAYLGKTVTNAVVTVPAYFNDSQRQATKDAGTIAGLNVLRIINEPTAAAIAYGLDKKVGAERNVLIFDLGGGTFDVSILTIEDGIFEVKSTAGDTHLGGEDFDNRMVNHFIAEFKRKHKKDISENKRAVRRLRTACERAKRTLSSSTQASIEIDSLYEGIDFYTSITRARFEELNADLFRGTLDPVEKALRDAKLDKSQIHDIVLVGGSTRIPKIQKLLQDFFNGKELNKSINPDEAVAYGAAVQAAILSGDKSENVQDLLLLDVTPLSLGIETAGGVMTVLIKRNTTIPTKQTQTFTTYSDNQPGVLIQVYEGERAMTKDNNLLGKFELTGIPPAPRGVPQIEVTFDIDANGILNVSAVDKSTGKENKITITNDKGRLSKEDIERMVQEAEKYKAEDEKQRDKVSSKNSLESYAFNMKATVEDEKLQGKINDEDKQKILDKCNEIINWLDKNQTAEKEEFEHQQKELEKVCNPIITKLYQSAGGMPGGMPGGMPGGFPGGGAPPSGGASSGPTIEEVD
# protocolNotes: SPR Biacore 3000, HSC70 immobilised, peptide analyte at 6.25 uM, 1:1 Langmuir fit
pKd: −log10 of the molar value. Square brackets hold non-standard residues; d marks the D form. Ends that are not written are not given here. Met(O) = CS(=O)CC[C@H](N)C(=O)O; pS = N[C@@H](COP(=O)(O)O)C(=O)O
recordedEndpoint: pKd

[I] RIHMVYSKR[pS]GKPRGYAFIEY [P140 peptide (peptide consisting of SEQ ID NO: 1 in which serine at position 10 is phosphorylated)]
[II] RIH[Met(O)]VYSKR[pS]GKPRGYAFIEY
From the recorded data, which exceeds the other in pKd: I or II ? Answer = label.
II
